The origin of these recorded values is paper PMC5748531.

experiment: in vitro; settings: mouse, MTT % Viability (Low Conc.)
So I've got a bunch of molecules here, and I need their viability values.
Give the number; % is assumed, so skip it.

Asked: Looking for the measured viability of CCOC(=O)CC(=O)NCC(=O)N1CCN(c2ccc(N3CC(Cn4cc(C)nn4)OC3=O)cc2F)CC1 (stereo not shown) , can you help?
Given back: 78

Asked: Looking for the measured viability of O=C(NCC(=O)N1CCN(c2ccc(N3CC(Cn4ccnn4)OC3=O)cc2F)CC1)c1cccnc1 (stereo not shown) , can you help?
Given back: 100

Asked: Looking for the measured viability of CCOC(=O)CC(=O)NCC(=O)N1CCN(c2ccc(N3CC(Cn4ccnn4)OC3=O)cc2F)CC1 (stereo not shown) , can you help?
Given back: 76

Asked: Looking for the measured viability of NCC(=O)N1CCN(c2ccc(N3CC(Cn4ccnn4)OC3=O)cc2F)CC1 (stereo not shown) , can you help?
Given back: 87

Asked: Looking for the measured viability of Cc1cn(CC2CN(c3ccc(N4CCN(C(=O)CNC(=O)c5ccc([N+](=O)[O-])o5)CC4)c(F)c3)C(=O)O2)nn1 (stereo not shown) , can you help?
Given back: 87

Asked: Looking for the measured viability of Cc1cn(CC2CN(c3ccc(N4CCN(C(=O)CNC(=O)C(Cl)Cl)CC4)c(F)c3)C(=O)O2)nn1 (stereo not shown) , can you help?
Given back: 84

Asked: Looking for the measured viability of Cc1cn(CC2CN(c3ccc(N4CCN(C(=O)CNC(=O)c5cccnc5)CC4)c(F)c3)C(=O)O2)nn1 (stereo not shown) , can you help?
Given back: 88

Asked: Looking for the measured viability of O=C(NCC(=O)N1CCN(c2ccc(N3CC(Cn4ccnn4)OC3=O)cc2F)CC1)c1ccc([N+](=O)[O-])o1 (stereo not shown) , can you help?
Given back: 98

Asked: Looking for the measured viability of CC(=O)NCC(=O)N1CCN(c2ccc(N3CC(Cn4ccnn4)OC3=O)cc2F)CC1 (stereo not shown) , can you help?
Given back: 91

Asked: Looking for the measured viability of Cc1cn(CC2CN(c3ccc(N4CCN(C(=O)CN)CC4)c(F)c3)C(=O)O2)nn1 (stereo not shown) , can you help?
Given back: 83
